Listed here are compounds together with their documented TD50.
system: CMV-EE210 cell line; test: Toxicity (TD50, cell viability) reported with the GFP assay; details: Dose at which cells are >50% viable
Counter-ions that a name gives are not always drawn.
RECORDED_ENDPOINT: TD50 (µM)

{"COMPOUND": "C[n+]1ccc(Nc2cccc(C(=O)Nc3ccc(Nc4ccnc5cc([N+](=O)[O-])ccc45)cc3)c2)cc1.Cl.[Cl-]", "RESULT_NUMBER": 25}
{"COMPOUND": "CN(C)c1ccc2c(Nc3ccc(NC(=O)c4ccc(Nc5cc[n+](C)cc5)cc4)cc3)ccnc2c1.Cl.[Cl-]", "RESULT_NUMBER": 25}
{"COMPOUND": "C[n+]1ccc(Nc2cccc(C(=O)Nc3ccc(Nc4ccnc5ccccc45)cc3)c2)cc1.Cl.[Cl-]", "RESULT_NUMBER": 25}
{"COMPOUND": "CN(C)c1ccc2nccc(Nc3ccc(C(=O)Nc4cccc(Nc5cc[n+](C)cc5)c4)cc3)c2c1", "RESULT_NUMBER": 25}
{"COMPOUND": "C[n+]1ccc(Nc2cccc(C(=O)Nc3ccc(Nc4ccnc5ccc(N)cc45)cc3)c2)cc1", "RESULT_NUMBER": 25}
{"COMPOUND": "Cc1cc(Nc2ccc(NC(=O)c3ccc(Nc4ccnc5ccc([N+](=O)[O-])cc45)cc3)cc2)nc(N)n1 [Cpd. H, hydrochloride]", "RESULT_NUMBER": 12.5}
{"COMPOUND": "C[n+]1ccc(Nc2ccc(NC(=O)c3ccc(Nc4ccnc5ccc(N)cc45)cc3)cc2)cc1", "RESULT_NUMBER": 50}
{"COMPOUND": "C[n+]1ccc(Nc2cccc(C(=O)Nc3ccc(Nc4ccnc5ccc([N+](=O)[O-])cc45)cc3)c2)cc1", "RESULT_NUMBER": 12.5}
{"COMPOUND": "C[n+]1ccc(Nc2ccc(NC(=O)c3ccc(Nc4ccnc5ccccc45)cc3)cc2)cc1 [Cpd. B, hydrochloride]", "RESULT_NUMBER": 25}
{"COMPOUND": "Cc1cc(Nc2ccc(NC(=O)c3ccc(Nc4ccnc5ccc(N(C)C)cc45)cc3)cc2)nc(N)n1.Cl", "RESULT_NUMBER": 25}
{"COMPOUND": "C[n+]1ccc(Nc2cccc(NC(=O)c3ccc(Nc4ccnc5cc(N)ccc45)cc3)c2)cc1", "RESULT_NUMBER": 12.5}
{"COMPOUND": "C[n+]1ccc(Nc2cccc(NC(=O)c3ccc(Nc4ccnc5ccc([N+](=O)[O-])cc45)cc3)c2)cc1", "RESULT_NUMBER": 25}
{"COMPOUND": "CN(C)c1ccc2c(Nc3ccc(C(=O)Nc4ccc(Nc5cc[n+](C)cc5)cc4)cc3)ccnc2c1.Cl.[Cl-]", "RESULT_NUMBER": 25}
{"COMPOUND": "C[n+]1ccc(Nc2ccc(C(=O)Nc3ccc(Nc4ccnc5ccc(N)cc45)cc3)cc2)cc1", "RESULT_NUMBER": 50}

Data provenance: patent US7939546B2
